Test system: ACHN renal
assayOverview: NCI tumour cell line growth inhibition, 48 h
propertyMeasured: TGI

Sample records with TGI:
[
  {
    "chemSmiles": "C/C(=N/NC(=S)N1CCN(C(=S)N/N=C(/C)c2ccccn2)CC1)c1ccccn1",
    "result": "> 44.1 µM"
  },
  {
    "chemSmiles": "CC[C@@]12C=CCN3CC[C@]4(c5cc(NC(=O)COc6cc(OCC(=O)Nc7cc8c(cc7OC)N(C)[C@H]7[C@@](O)(C(=O)OC)[C@H](OC(C)=O)[C@]9(CC)C=CCN%10CC[C@]87[C@@H]%109)cc7oc(-c8ccccc8)cc(=O)c67)c(OC)cc5N(C)[C@@H]4[C@](O)(C(=O)OC)[C@H]1OC(C)=O)[C@H]32",
    "result": "> 100 µM"
  },
  {
    "chemSmiles": "Cc1cc2nc(-c3c(N)ncc(C#N)c3-c3ccc(Cl)cc3)[nH]c2cc1C",
    "result": "> 100 µM"
  }
]

Here is another compound to look at.
Q: What value of TGI has been reported for the following compound? CCN(CC)/[N+]([O-])=N/O
Result: > 100 µM
